# System: FLT4 (human), P35916 [Q890H]
# Sequence (P35916 whole entry, looked up, stated change not applied): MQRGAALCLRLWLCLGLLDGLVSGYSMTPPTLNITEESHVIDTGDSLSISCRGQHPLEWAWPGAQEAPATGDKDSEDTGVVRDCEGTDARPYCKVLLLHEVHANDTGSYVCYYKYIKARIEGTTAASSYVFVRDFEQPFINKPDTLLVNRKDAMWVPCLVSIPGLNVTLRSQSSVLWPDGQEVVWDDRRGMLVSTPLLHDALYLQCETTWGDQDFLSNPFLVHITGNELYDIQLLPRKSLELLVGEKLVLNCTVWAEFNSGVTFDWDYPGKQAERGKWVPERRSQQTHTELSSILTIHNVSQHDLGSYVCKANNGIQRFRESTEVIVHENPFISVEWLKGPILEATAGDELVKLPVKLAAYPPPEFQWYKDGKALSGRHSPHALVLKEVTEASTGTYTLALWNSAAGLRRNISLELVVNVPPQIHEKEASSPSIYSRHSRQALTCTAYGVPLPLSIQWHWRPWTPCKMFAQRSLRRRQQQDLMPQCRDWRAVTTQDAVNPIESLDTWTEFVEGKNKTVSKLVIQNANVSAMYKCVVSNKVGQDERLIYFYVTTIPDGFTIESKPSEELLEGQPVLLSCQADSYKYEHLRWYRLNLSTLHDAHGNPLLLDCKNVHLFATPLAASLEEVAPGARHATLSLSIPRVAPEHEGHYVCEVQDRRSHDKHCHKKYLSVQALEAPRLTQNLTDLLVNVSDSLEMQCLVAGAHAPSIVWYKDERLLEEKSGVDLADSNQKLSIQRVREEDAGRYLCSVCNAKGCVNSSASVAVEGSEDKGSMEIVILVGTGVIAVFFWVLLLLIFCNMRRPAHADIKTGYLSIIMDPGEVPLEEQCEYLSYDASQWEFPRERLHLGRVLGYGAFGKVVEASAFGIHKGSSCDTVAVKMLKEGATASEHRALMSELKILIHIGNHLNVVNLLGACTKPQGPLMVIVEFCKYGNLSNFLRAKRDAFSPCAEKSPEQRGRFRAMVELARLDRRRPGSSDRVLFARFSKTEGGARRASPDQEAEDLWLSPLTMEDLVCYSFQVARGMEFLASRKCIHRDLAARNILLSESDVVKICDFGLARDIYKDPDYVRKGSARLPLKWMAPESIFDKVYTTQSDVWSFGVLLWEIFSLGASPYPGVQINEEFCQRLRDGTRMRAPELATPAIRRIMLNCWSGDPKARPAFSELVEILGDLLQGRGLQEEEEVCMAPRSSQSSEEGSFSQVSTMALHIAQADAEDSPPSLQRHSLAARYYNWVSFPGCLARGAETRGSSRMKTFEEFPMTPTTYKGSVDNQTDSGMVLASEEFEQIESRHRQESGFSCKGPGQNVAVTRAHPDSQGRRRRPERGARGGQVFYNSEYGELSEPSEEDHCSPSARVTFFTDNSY
# assay_summary: radiometric filter-binding kinase assay, Kinase HotSpot
# particulars: compound 0.5 µM; ATP 10 µM
value_kind: residual activity (%)
The reply should be a number in %, with the unit left off.

The examples below pair each entry with its known result.
The reported residual activity of the compound O=C1Nc2ccccc2/C1=C\c1c(Cl)[nH]c2ccccc12 was 108

Sample N#C/C(=C\c1ccc(O)c(O)c1)C(=O)NCc1ccccc1 ; residual activity observed: 87.7

Lookup result for Cn1nc2c3c(cccc31)C(=O)c1ccccc1-2 ; measured residual activity: 86.8

What the record says about O=C1NC(=O)c2c1c1c3ccccc3[nH]c1n1cncc21 : residual activity is 56.6

Entry N#CCCc1ccc2c(c1)-c1[nH]c3ccc([N+](=O)[O-])cc3c1CC(=O)N2 — recorded residual activity = 66.5

Reported residual activity for Oc1ccc(-c2nc(-c3ccc(F)cc3)c(-c3ccncc3)[nH]2)cc1 was 101

Further cases:
What the record says about Nc1ccc2ncnc(NCCc3ccc(Oc4ccccc4)cc3)c2c1 : residual activity is 101

###

# target_of_assay: ERBB2 (human)
# assay_summary: radiometric filter-binding kinase assay, Kinase HotSpot
# particulars: compound 0.5 µM; ATP 10 µM
value_kind: residual activity (%)
Field: numeric (%). Do not append units.

Reference set (2 entries):
Lab note: measured residual activity of Cc1cccc(-c2nc(C(C)(C)C)[nH]c2-c2ccc3c(c2)OCO3)n1 was 102

molecule Fc1ccc(-c2nc3n(c2-c2ccncc2)CCS3)cc1 , residual activity observed: 105

Next:
So for O=C1NC(=O)c2c1c1c3ccccc3[nH]c1n1cncc21 , the logged residual activity turned out to be 109

For record CN(C)c1ccc(/C=C2\C(=O)Nc3ccccc32)cc1 the listed residual activity is 91

According to the records, this molecule Cn1c2ccccc2c2c3c(c4c5ccccc5n(CCC#N)c4c21)CNC3=O displays residual activity of 107

In plain terms, CN(C)S(=O)(=O)c1ccc2c(c1)/C(=C/c1cc3c([nH]1)CCCC3)C(=O)N2 has a documented residual activity of 101

Given item N#Cc1c[nH]c2c[nH]/c(=N\Cc3cccnc3)cc2/c1=N\c1ccc(F)c(Cl)c1 , the value recorded as its residual activity is 91.7

residual activity in this record for C[C@@H]1CCN(C(=O)CC#N)C[C@@H]1N(C)c1ncnc2[nH]ccc12 : 109

Per the record, O=C(c1cc2cc(O)ccc2[nH]1)c1cc2cc(O)ccc2[nH]1 has residual activity of 113

residual activity for COc1cc2ncnc(Nc3ccc(Oc4ccccc4)cc3)c2cc1OC is 29.5

O=C1c2ccccc2-c2nc3nnnn3nc21 has a reported residual activity of 22.2

residual activity recorded for this molecule, COc1ccc2c(c1)/C(=C/c1cnc[nH]1)C(O)=N2 , is 101

###

# target_of_assay: DYRK1B (human) (UniProt Q9Y463)
# Sequence (Q9Y463 whole entry, looked up): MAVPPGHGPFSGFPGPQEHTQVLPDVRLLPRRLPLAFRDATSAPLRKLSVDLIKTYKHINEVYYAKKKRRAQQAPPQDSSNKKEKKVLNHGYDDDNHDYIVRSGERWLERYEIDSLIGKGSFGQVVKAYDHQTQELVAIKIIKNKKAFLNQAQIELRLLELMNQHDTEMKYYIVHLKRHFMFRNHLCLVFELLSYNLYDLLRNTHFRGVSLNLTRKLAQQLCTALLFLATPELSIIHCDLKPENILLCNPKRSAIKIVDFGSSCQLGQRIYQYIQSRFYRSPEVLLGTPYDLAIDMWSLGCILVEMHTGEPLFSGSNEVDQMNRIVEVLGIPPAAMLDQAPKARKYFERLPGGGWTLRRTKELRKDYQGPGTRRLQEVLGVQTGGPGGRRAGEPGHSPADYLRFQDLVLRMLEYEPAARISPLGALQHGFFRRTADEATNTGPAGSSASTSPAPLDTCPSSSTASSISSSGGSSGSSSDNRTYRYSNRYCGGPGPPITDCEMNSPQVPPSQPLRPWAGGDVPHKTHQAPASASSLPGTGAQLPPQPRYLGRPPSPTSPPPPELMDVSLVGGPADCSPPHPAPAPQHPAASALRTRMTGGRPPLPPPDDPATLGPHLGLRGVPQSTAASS
# assay_summary: radiometric filter-binding kinase assay, Kinase HotSpot
# particulars: compound 0.5 µM; ATP 10 µM
// reported residual activity per item
Your answer should be a plain number; it is taken to be in %.

A selection of reference data follows.
# molecule CN(C)CCCn1cc(C2=C(c3c[nH]c4ccccc34)C(=O)NC2=O)c2ccccc21 ; its residual activity = 76

O=C1C(Cl)=C(N2C(=O)CCC2=O)C(=O)c2ccccc21 yielded residual activity of 103

For O=C1NC(=O)c2c1c1c3ccccc3[nH]c1n1cncc21 the molecule record lists residual activity as 65.9

Consider O=C1c2ccccc2-c2nc3nnnn3nc21 . Its measured residual activity is 81

Record summary for CCCCc1c(-c2ccc(OC)cc2)[nH]c2nccnc12 : reported residual activity = 94.5

GET /value?item= Cc1nc(-c2ccccc2)c(-c2ccncc2)o1 &field=residual activity returns 98.9

Lookup result for CC(C)(C)c1cc(C=C(C#N)C#N)cc(Br)c1O ; measured residual activity: 103

For record Cc1cccc(-c2nc(C(C)(C)C)[nH]c2-c2ccc3c(c2)OCO3)n1 the listed residual activity is 99.6

Record summary for N#Cc1c[nH]c2c[nH]/c(=N\Cc3cccnc3)cc2/c1=N\c1ccc(F)c(Cl)c1 : reported residual activity = 65.2

Given item Cc1cn(-c2cc(NC(=O)c3ccc(C)c(Nc4nccc(-c5cccnc5)n4)c3)cc(C(F)(F)F)c2)cn1 , the value recorded as its residual activity is 92.8

More entries:
According to the records, this molecule Ic1cccc(CSc2nnc(-c3ccncc3)o2)c1 displays residual activity of 96.7

# molecule Cc1cncc2cccc(S(=O)(=O)N3CCCN(C(=O)CN)C[C@H]3C)c12 ; its residual activity = 101

meta.source: the kinase profiling compilation of Christmann-Franck et al. (2016)
